Recorded phosphorylation enrichment values for a group of sequences are listed next.
# System: Fer (mouse);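 further: frequency after pTyr selection over input frequency; kinase dosed for 20-30% of maximal phosphorylation in three min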
# Test method notes: phosphorylation enrichment, bacterial display (enrichment ratio); higher = better substrate or ligand; peptides without Tyr show the background

| Input sequence | phosphorylation enrichment |
| --- | --- |
| LFQAKYQIRYR [CRLF1_Y272] | 0.325 |
| ITKNPYDPPGR | 0.437 |
| KLYRVYCDMNT [FGB_Y269_P265L] | 0.52 |
| MLEVPYVDRNS [F10_Y384] | 0.434 |
| HIPFRYPKEFQ [IDS_Y234] | 0.344 |
| ELPEKYSQNIY [PKP2_Y626] | 0.475 |
| VMLENYSNLVS [ZFP69_Y109] | 0.556 |
| NDLMEYPKQHG [ASS1_Y163_A164P] | 0.377 |

INPUT: For Fer (mouse), give the measured phosphorylation enrichment of the entry SLNEGYAKDFD [FBP1_Y216_R218K]
OUTPUT: 0.511

INPUT: State phosphorylation enrichment (Fer (mouse)) of GYSRHCEDGYP [CTNND1_Y217_Y217C] .
OUTPUT: 0.465

INPUT: Please tell me the measured phosphorylation enrichment for YGSGNYNDFGN [HNRNPA2B1_Y300] ; system: Fer (mouse).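 Further: 11-residue human phosphosite peptides and single-mutation variants displayed on the E. coli surface, counted by deep sequencing, each peptide's frequency after selection divided by its frequency in the unselected input library.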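 Further: frequency after pTyr selection over input frequency; kinase dosed for 20-30% of maximal phosphorylation in three min.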
OUTPUT: 0.424
